Every entry's value here was drawn from PubChem BioAssay.

- experimental protocol: RAM pathway blockade in budding yeast – dse1pr::URA3 reporter, 5-FOA selection, pilot screen (AID 869);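 also: 0% = DMSO wells with no growth and 100% = 10 µM 1-NA-PP1 with full growth; RAM network block rescues cells from 5-FOA so hits raise OD615 growth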
- test settings: S. cerevisiae dse1pr::URA3 5-FOA growth, OD615, 2 d; at 10 µM; stronger effect = higher value; strain carries analog-sensitive mutant Cbk1 kinase
recorded endpoint: inhibition (%)
Give the number; % is assumed, so skip it.

[
  {
    "compound structure": "O=P(O)(CCc1ccccn1)CN1CCOCC1",
    "endpoint value": 2.73
  },
  {
    "compound structure": "COc1ccc(OC)c(CNC(=O)CCc2nc(-c3cccs3)no2)c1",
    "endpoint value": 1.71
  }
]

I would be grateful if you could share the reported inhibition for CCN(CCNC(=O)Cn1c(=O)sc2ccccc21)c1ccccc1 .
1.57

I would be grateful if you could share the reported inhibition for Cc1sc2nc(CSc3nnc(Cc4cccs4)n3C3CCCCC3)[nH]c(=O)c2c1C .
3.25

I would be grateful if you could share the reported inhibition for Cc1cc(C)c(C(=O)Nc2ccc(S(=O)(=O)Nc3onc(C)c3C)cc2)c(C)c1 .
2.68

I would be grateful if you could share the reported inhibition for CC(=O)Nc1ccc(S(=O)(=O)N2CCN(C(=O)CCC3CCCC3)CC2)cc1 .
0.505
